- assayed.system: ROCK kinase
- test.details: In vitro ROCK kinase inhibition activity evaluation (33P-ATP filter-binding)
- condition.notes: 1 nM ROCK kinase, 20 μM Long S6 Kinase substrate peptide, 2 h room temperature

- compound: "O=S(=O)(c1cccc2cnccc12)N1C[C@H]2CNC[C@H]2C1 [Example 7]"
  IC50: "100 to 1000 nM"
- compound: "O=S(=O)(c1cccc2cncc(F)c12)N1C[C@@H]2CCN[C@@H]2C1 [Example 25]"
  IC50: "100 to 1000 nM"
- compound: "CCNC12CC1CN(S(=O)(=O)c1cccc3cnccc13)C2 (stereo not drawn) [Example 57]"
  IC50: "1000 to 5000 nM"
- compound: "COc1cncc2cccc(S(=O)(=O)N3C[C@H]4CN[C@H]4C3)c12 (stereo in doubt) [Example 50]"
  IC50: "1000 to 5000 nM"
- compound: "Cc1cncc2cccc(S(=O)(=O)N3CC4CCNCC4C3)c12 (stereo not drawn) [Example 44]"
  IC50: "< 100 nM"
- compound: "O=S(=O)(c1cccc2cncc(F)c12)N1CCC2NCCCC21 (stereo not drawn) [Example 28]"
  IC50: "100 to 1000 nM"
- compound: "O=S(=O)(c1cccc2cnccc12)N1CCC2CNCC2C1 (stereo not drawn) [Example 15]"
  IC50: "100 to 1000 nM"
- compound: "O=S(=O)(c1cccc2cnccc12)N1CCC2NCCCC21 (stereo not drawn) [Example 6]"
  IC50: "100 to 1000 nM"
- compound: "O=S(=O)(c1cccc2cnccc12)N1CC2CCNCC2C1 (stereo not drawn) [Example 8]"
  IC50: "100 to 1000 nM"
- compound: "Cc1cncc2cccc(S(=O)(=O)N3C[C@H]4CCCN[C@H]4C3)c12 (stereo in doubt) [Example 40]"
  IC50: "< 100 nM"
- compound: "NC12CC1CN(S(=O)(=O)c1cccc3cnccc13)C2 (stereo not drawn) [Example 56]"
  IC50: "100 to 1000 nM"
- compound: "Cc1cncc2cccc(S(=O)(=O)N3CC[C@@H]4NCC[C@@H]43)c12 (stereo in doubt) [Example 37]"
  IC50: "100 to 1000 nM"
